Target: UniProtKB Q9UDY8
Assay: MALT1 Protease Assay 2
quantity-measured: IC50

Before answering, review these 5 worked examples.
compound | target-under-test | IC50
C[C@@]1(C(F)(F)F)CN(C(=O)Nc2cnnc(C(F)F)c2)c2cnc3cc(C#N)nn3c21 [US20240018157, Example 190] | UniProtKB Q9UDY8 | > 1 µM
CC1CC(NC(=O)N2C[C@@](C)(C(F)(F)F)c3c2cnc2cc(Cl)nn32)CCO1 (stereo partly drawn) [US20240018157, Example 173] | UniProtKB Q9UDY8 | > 1 µM
C[C@]1(C(F)(F)F)CN(C(=O)Nc2cnc(-n3nccn3)c(C(F)(F)F)c2)c2cnc3cc(F)nn3c21 [US20240018157, Example 182] | UniProtKB Q9UDY8 | > 1 µM
C[C@]1(C(F)(F)F)CN(C(=O)Nc2cnc(-n3nccn3)c(Cl)c2)c2cnc3c(F)cnn3c21 [US20240018157, Example 147] | UniProtKB Q9UDY8 | > 1 µM
C[C@]1(C(F)(F)F)CN(C(=O)Nc2cnc(-n3nccn3)c(Cl)c2)c2cnc3c(F)c(F)nn3c21 [US20240018157, Example 139] | UniProtKB Q9UDY8 | > 1 µM

Looking for the measured IC50 of C[C@]1(C(F)F)CN(C(=O)Nc2cnc(-n3nccn3)c(Cl)c2)c2cnc3cc(Cl)nn3c21 [US20240018157, Example 129] , can you help?
0.01 to 0.1 µM

Looking for the measured IC50 of CO[C@]1(C(F)(F)F)CN(C(=O)Nc2cnc(-n3nccn3)c(Cl)c2)c2cnc3cc(Cl)nn3c21 [US20240018157, Example 135] , can you help?
0.1 to 1 µM

Looking for the measured IC50 of C[C@]1(C(F)(F)F)CN(C(=O)Nc2cnnc(C(F)F)c2)c2cnc3cc(OC(F)F)nn3c21 [US20240018157, Example 199] , can you help?
> 1 µM

Looking for the measured IC50 of C[C@]1(C(F)(F)F)CN(C(=O)Nc2cnc(-n3nccn3)c(C(F)F)c2)c2cnc3cc(F)nn3c21 [US20240018157, Example 105] , can you help?
0.1 to 1 µM

Looking for the measured IC50 of CN(C)C(=O)COc1ncc(NC(=O)N2C[C@@](C)(C(F)(F)F)c3c2cnc2cc(Cl)nn32)cc1C(F)F [US20240018157, Example 108] , can you help?
> 1 µM

Looking for the measured IC50 of CC1(C)CN(C(=O)Nc2cnc(-n3nccn3)c(Cl)c2)c2cnc3cc(Cl)nn3c21 [US20240018157, Example 1] , can you help?
0.01 to 0.1 µM

Looking for the measured IC50 of CN(C(=O)c1ncc(NC(=O)N2C[C@@](C)(C(F)(F)F)c3c2cnc2cc(Cl)nn32)cc1C(F)F)C1CC1 [US20240018157, Example 151] , can you help?
< 0.01 µM

Looking for the measured IC50 of COc1cnc(C(F)(F)F)cc1NC(=O)N1C[C@@](C)(C(F)(F)F)c2c1cnc1cc(Cl)nn21 [US20240018157, Example 66] , can you help?
< 0.01 µM

----------
Biological target: Mucosa-associated lymphoid tissue lymphoma translocation protein 1 (Homo sapiens)
Experiment: MALT1 Protease Assay 2
pIC50: −log10 of the molar value.
Each item that follows carries a reported pIC50.

compound-structure-string | data-value
C[C@@H](O)c1cc(NC(=O)N2C[C@@](C)(C(F)(F)F)c3c2cnc2cc(Cl)nn32)cc(C(F)(F)F)n1 | 7.00 to 8.00
C[S@@+]([O-])c1ccc(NC(=O)N2C[C@@](C)(C(F)(F)F)c3c2cnc2cc(Cl)nn32)cc1C(F)F | 6.00 to 7.00

Looking for the measured pIC50 of `COc1c(Cl)cc(NC(=O)N2C[C@@](C)(C(F)(F)F)c3c2cnc2cc(Cl)nn32)nc1O[C@H]1CCNC1` , can you help?
> 8.00

----------
Target: Mucosa-associated lymphoid tissue lymphoma translocation protein 1 (Homo sapiens, UniProt Q9UDY8)
Assay: MALT1 Protease Assay 2
quantity-measured: IC50

Before answering, review these 6 worked examples.
compound-structure-string | data-value
C[C@@]1(C(F)(F)F)CN(C(=O)Nc2cnc(-n3nccn3)c(C(F)F)c2)c2cnc3cc(F)nn3c21 | < 10 nM
C[C@H](O)c1cnn(-c2ncc(NC(=O)N3C[C@@](C)(C(F)(F)F)c4c3cnc3cc(Cl)nn43)cc2C(F)F)n1 | < 10 nM
C[C@@]1(C(F)(F)F)CN(C(=O)Nc2cnnc(C(F)F)c2)c2cnc3cc(CC(F)F)nn3c21 | > 1000 nM
CCOc1cc(NC(=O)N2C[C@@](C)(C(F)(F)F)c3c2cnc2cc(Cl)nn32)cn(C(F)F)c1=O | 10 to 100 nM
C[C@@]1(C2CC2)CN(C(=O)Nc2cnc(-n3nccn3)c(Cl)c2)c2cnc3cc(Cl)nn3c21 | 10 to 100 nM
C[C@@]1(C(F)(F)F)CN(C(=O)Nc2cnnc(C(F)F)c2)c2cnc3c(F)c(Cl)nn3c21 | 10 to 100 nM

Looking for the measured IC50 of `COc1ncc(NC(=O)N2C[C@@](C)(C(F)(F)F)c3c2cnc2cc(Cl)nn32)cc1Cl` , can you help?
< 10 nM

Looking for the measured IC50 of `C[C@]1(C(F)(F)F)CN(C(=O)Nc2cnnc(C(F)F)c2)c2cnc3c(F)c(Cl)nn3c21` , can you help?
> 1000 nM

----------
Molecular target: Mucosa-associated lymphoid tissue lymphoma translocation protein 1 (Homo sapiens)
Experiment: MALT1 Protease Assay 2
quantity-measured: IC50

molecule | IC50
COC[C@@]1(C(F)(F)F)CN(C(=O)Nc2cnc(-n3nccn3)c(Cl)c2)c2cnc3cc(Cl)nn3c21 | < 10 nM
C[C@@H](O)COc1ncc(NC(=O)N2C[C@@](C)(C(F)(F)F)c3c2cnc2cc(Cl)nn32)cc1Cl | 10 to 100 nM
Cc1cn2ncc3c(c2n1)[C@@](C)(C(F)(F)F)CN3C(=O)Nc1cnc(-n2nccn2)c(Cl)c1 | 10 to 100 nM
O=C(Nc1cnc(-n2nccn2)c(Cl)c1)N1CC(O)(C(F)(F)F)c2c1cnc1cc(Cl)nn21 (stereo unspecified) | < 10 nM

The record that follows has no IC50 shown yet.
Looking for the measured IC50 of `Cc1cn2ncc3c(c2n1)[C@@](C)(C(F)(F)F)CN3C(=O)Nc1cnnc(C(F)F)c1` , can you help?
> 1000 nM

----------
Each item that follows carries a reported pIC50.
Biological target: Mucosa-associated lymphoid tissue lymphoma translocation protein 1 (Homo sapiens, UniProt Q9UDY8)
Sequence (Q9UDY8 whole entry): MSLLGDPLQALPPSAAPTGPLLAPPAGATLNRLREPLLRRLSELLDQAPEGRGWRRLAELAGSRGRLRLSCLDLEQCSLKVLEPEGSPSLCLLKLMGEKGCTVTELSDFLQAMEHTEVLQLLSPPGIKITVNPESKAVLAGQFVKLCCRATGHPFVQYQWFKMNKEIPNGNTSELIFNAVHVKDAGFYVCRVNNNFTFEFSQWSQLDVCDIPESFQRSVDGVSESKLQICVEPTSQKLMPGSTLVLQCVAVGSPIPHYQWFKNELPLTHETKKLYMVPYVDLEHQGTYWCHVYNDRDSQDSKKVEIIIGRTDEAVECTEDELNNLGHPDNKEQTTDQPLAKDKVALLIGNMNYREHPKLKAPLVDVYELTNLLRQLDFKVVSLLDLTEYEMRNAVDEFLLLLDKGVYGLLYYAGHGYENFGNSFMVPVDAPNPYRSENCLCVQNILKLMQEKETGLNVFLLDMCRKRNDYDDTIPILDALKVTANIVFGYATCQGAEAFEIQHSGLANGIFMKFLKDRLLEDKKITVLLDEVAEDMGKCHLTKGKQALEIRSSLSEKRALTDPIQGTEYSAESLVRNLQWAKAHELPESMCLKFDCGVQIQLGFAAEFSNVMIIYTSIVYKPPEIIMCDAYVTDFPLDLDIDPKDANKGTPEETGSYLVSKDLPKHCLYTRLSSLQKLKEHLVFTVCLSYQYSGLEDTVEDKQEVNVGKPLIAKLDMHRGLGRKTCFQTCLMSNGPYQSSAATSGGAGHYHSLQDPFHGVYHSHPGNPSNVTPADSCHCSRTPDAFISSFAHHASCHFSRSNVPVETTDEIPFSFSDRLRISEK
Test: MALT1 Protease Assay 2
pIC50: −log10 of the molar value.

Looking for the measured pIC50 of `Cc1cn2ncc3c(c2n1)[C@](C)(C(F)(F)F)CN3C(=O)Nc1cnnc(C(F)F)c1` , can you help?
7.00 to 8.00

----------
Target: Mucosa-associated lymphoid tissue lymphoma translocation protein 1 (Homo sapiens, UniProt Q9UDY8)
Experiment: MALT1 Protease Assay 2
Each item that follows carries a reported IC50.

Before answering, review these 8 worked examples.
compound | IC50
C[C@@]1(C(F)(F)F)CN(C(=O)Nc2cc(C(F)F)no2)c2cnc3cc(Cl)nn3c21 [US20240018157, Example 103] | 100 to 1000 nM
Cc1cc(NC(=O)N2C[C@](C)(C(F)(F)F)c3c2cnc2cc(F)nn32)cnc1-n1nccn1 [US20240018157, Example 124] | > 1000 nM
C[C@@]1(C(F)(F)F)CN(C(=O)Nc2cnc(-n3ccnn3)c(C(F)F)c2)c2cnc3cc(Cl)nn3c21 [US20240018157, Example 36] | < 10 nM
C[C@@]1(C(F)(F)F)CN(C(=O)N[C@H]2CCC(F)(F)C2)c2cnc3cc(Cl)nn3c21 [US20240018157, Example 166] | > 1000 nM
C[C@@]1(C(F)(F)F)CN(C(=O)Nc2cnc(C3(O)CCC3)c(Cl)c2)c2cnc3cc(Cl)nn3c21 [US20240018157, Example 168] | > 1000 nM
Cc1nn2c3c(cnc2c1N)N(C(=O)Nc1cnc(-n2nccn2)c(Cl)c1)C[C@]3(C)C(F)(F)F [US20240018157, Example 159] | 10 to 100 nM
CC1(C)CC(NC(=O)N2C[C@@](C)(C(F)(F)F)c3c2cnc2cc(Cl)nn32)CCO1 (stereo partly specified) [US20240018157, Example 170] | > 1000 nM
C[C@@]1(C(F)(F)F)CN(C(=O)Nc2cnn(S(C)(=O)=O)c2)c2cnc3cc(Cl)nn3c21 [US20240018157, Example 94] | 100 to 1000 nM

Looking for the measured IC50 of Cc1cn2ncc3c(c2n1)C(C)(C)CN3C(=O)Nc1cnc(C(=O)N2CC(O)C2)c(Cl)c1 [US20240018157, Example 208] , can you help?
> 1000 nM

Looking for the measured IC50 of COC1CN(C(=O)c2ncc(NC(=O)N3CC(C)(C)c4c3cnn3cc(C)nc43)cc2Cl)C1 [US20240018157, Example 207] , can you help?
> 1000 nM

Looking for the measured IC50 of C[C@@]1(C(F)(F)F)CN(C(=O)Nc2cnnc(C(F)F)c2)c2cnc3cc(Cl)nn3c21 [US20240018157, Example 65] , can you help?
10 to 100 nM
